- Target Desc: Human serum albumin (HSA) (Homo sapiens, UniProt P02768)
- Sequence (P02768 25-609): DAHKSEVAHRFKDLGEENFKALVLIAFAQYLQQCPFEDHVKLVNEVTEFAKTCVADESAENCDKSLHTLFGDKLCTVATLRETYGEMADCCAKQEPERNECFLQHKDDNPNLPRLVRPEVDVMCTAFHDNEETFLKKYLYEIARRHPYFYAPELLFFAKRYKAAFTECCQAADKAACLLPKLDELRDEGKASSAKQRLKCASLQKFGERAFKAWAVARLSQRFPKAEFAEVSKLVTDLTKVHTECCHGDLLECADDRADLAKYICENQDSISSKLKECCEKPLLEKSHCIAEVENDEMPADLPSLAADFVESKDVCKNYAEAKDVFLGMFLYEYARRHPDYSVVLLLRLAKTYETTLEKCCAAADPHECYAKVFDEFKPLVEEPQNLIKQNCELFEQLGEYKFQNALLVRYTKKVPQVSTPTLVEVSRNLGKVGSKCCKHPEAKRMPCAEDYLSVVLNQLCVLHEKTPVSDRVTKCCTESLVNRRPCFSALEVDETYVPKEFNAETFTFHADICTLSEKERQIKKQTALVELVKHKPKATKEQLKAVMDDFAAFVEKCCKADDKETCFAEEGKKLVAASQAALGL
- Test Description: Fluorescence quenching of human serum albumin
- Condition Notes: 298 K, modified Stern-Volmer
Give Satisfied when the value for fa (fraction of fluorophore accessible to the quencher), HSA is at least 1. Give Not satisfied when it is less.

{"columns": ["Compound", "Assigned Category"],
 "data": [
  ["CCn1cc(C(=O)[O][Eu]([OH])[O]C(=O)c2cn(CC)c3cc4c(cc3c2=O)OCO4)c(=O)c2cc3c(cc21)OCO3.O [Eu oxo, [Eu(oxo)(OH)(H2O)]]", "Not satisfied"],
  ["CCn1cc(C(=O)O)c(=O)c2cc3c(cc21)OCO3 [oxo, reference compound]", "Satisfied"],
  ["CCn1cc(C(=O)[O][Sm]([OH])[O]C(=O)c2cn(CC)c3cc4c(cc3c2=O)OCO4)c(=O)c2cc3c(cc21)OCO3.O.O [Sm oxo, [Sm(oxo)(OH)(H2O)] · H2O]", "Satisfied"],
  ["CCn1cc(C(=O)[O][Y]([OH])[O]C(=O)c2cn(CC)c3cc4c(cc3c2=O)OCO4)c(=O)c2cc3c(cc21)OCO3.O [Y oxo, [Y(oxo)(OH)(H2O)]]", "Satisfied"],
  ["CCn1cc(C(=O)[O][La]([OH])[O]C(=O)c2cn(CC)c3cc4c(cc3c2=O)OCO4)c(=O)c2cc3c(cc21)OCO3.O [La oxo, [La(oxo)(OH)(H2O)]]", "Satisfied"]
]}
